Origin of values: patent US10899759B2

# measured.target: human mAChR M1 (Homo sapiens, UniProt P11229)
# Construct: host or cells: CHO-K1
# Sequence (P11229 whole entry): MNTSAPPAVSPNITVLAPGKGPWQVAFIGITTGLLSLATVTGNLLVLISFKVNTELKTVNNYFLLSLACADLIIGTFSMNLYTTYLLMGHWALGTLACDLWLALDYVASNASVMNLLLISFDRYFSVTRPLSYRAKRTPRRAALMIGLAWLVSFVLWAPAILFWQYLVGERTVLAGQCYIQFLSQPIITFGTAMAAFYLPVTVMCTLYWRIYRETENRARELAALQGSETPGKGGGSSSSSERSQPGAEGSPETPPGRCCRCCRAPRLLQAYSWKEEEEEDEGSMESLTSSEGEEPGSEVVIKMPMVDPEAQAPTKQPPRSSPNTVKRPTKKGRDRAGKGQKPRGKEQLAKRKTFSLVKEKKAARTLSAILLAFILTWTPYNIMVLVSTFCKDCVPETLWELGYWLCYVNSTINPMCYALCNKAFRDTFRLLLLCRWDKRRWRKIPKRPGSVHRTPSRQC
# measurement.description: mAChR M1 cell-based functional assay (calcium mobilization, Fluo-4, FDSS)
# condition.label: CHO-K1 cells stably expressing hM1; EC20 acetylcholine response; read-out: Human M1 Emax
metric.name: Emax (%)

A = Cn1ncc2c(Cc3ccc(-c4cscn4)cc3)cc(C(=O)NCC3CCOCC3)nc21
B = CC1(C)CC(NC(=O)c2cc(Cc3ccc(-n4cccn4)cc3)c3ccsc3n2)CCO1 (centres unmarked)
Could you tell me which of these two has the smaller Emax figure? First: A Second: B Indicate your choice by writing its label. A

P = O=C(N[C@H]1CCOC1)c1cc(Cc2ccc(-n3cccn3)cc2)c2ccsc2n1
Q = Cn1cc(-c2ccc(Cc3cc(C(=O)NC4CCOCC4)nc4sccc34)cn2)cn1
Given P and Q , report the one with the higher recorded Emax. Indicate your choice by writing its label. P
